Target: CIB1 and αIIb interaction (CIB1-GST : F-αIIb peptide) (Homo sapiens)
Construct: made in house; host or cells: BL-21 plus RIL cells (E. coli)
Sequence (Q99828 whole entry): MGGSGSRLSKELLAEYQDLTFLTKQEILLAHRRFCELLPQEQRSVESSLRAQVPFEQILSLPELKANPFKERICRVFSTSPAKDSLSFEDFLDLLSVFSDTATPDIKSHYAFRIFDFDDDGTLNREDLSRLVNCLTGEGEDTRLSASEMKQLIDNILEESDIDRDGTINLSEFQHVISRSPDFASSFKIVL
Test: FP assay, 1536-well qHTS format (primary and confirmatory screen)
Assay type: binding
Details: qHTS FP screen hits, Table S2; negative = inhibition
Parameter: Efficacy (%). Scope: all listed entries.
The answer is to be given in %; state only the numeric part.

Use these answered entries as a reference point.
CCOC(=O)c1c(NC(=O)C2CC(Cl)=CCC2C(=O)O)sc2c1CCCCC2.O=C(O)C(F)(F)F (centres unmarked) [NCGC00238648-01] : -22
CN(C)CC1CCCN(C2CCN(C(=O)c3cccc(-c4cc(O)c5ncccc5c4)c3)CC2)C1.O=C(O)C(F)(F)F (centres unmarked) [NCGC00247737-01] : -45
O=C(O)c1cnn(-c2nc3cc(Cl)c(OC(F)(F)F)cc3[nH]2)c1 [NCGC00484069-01] : -33
CC(C)NC(=S)N/N=C1\C(=O)Nc2ccccc21.O=C(O)C(F)(F)F [NCGC00229535-01] : -24
C=C1C(OC(=O)/C(C)=C\C)[C@@]23CCC4[C@@](C)(CCC[C@@]4(C)C(=O)O)C2CC[C@H]1C3OC(C)=O (some centres unmarked) [NCGC00381205-01] : -30

Incoming: Look up Efficacy (%) for this compound: COc1ccc(NC(=O)c2[nH]c(C)c(C(C)=O)c2C)cc1S(=O)(=O)Nc1ccccc1C#N [NCGC00348145-01]
Outgoing: -21

Incoming: Entry C=C1C(=O)O[C@@H]2[C@H]3C(C)=CC(=O)C3=C(C)[C@@H](OC(=O)/C(C)=C\C)[C@H](O)[C@@H]12 [NCGC00380702-01] : reported Efficacy (%) = ?
Outgoing: -35

Incoming: Consider the compound CCCCC(CC)CNC(=N)NC(=N)NCCCCCCNC(=N)NC(=N)NCC(CC)CCCC.Cl.Cl.Cl (centres unmarked) [NCGC00178352-06] and give its measured Efficacy (%).
Outgoing: -55

----------
Molecular target: CIB1 and αIIb interaction (CIB1-GST : F-αIIb peptide) (Homo sapiens)
Construct: made in house; host or cells: BL-21 plus RIL cells (E. coli)
Assay: FP assay, 1536-well qHTS format (primary and confirmatory screen)
Assay type: binding
Conditions: qHTS FP screen hits, Table S2; negative = inhibition
// map Efficacy (%) onto a label; ranges low group = under -60%, middle group = from -60% up to -30%, high group = -30% and over

CC(=O)NC(Cc1ccccc1)C(=O)O (stereo not drawn) : middle group
CC(C)C(=O)OCc1ccc(-c2nn(Cc3ccccc3)c3ccccc23)o1 : high group
Cc1cc(S(=O)(=O)Nc2cnccc2C(=O)Nc2nc(-c3ccccc3)cs2)c(C)o1.O=C(O)C(F)(F)F : middle group

Incoming: Please classify: `O=C(O)c1cccc(CN2C(=O)/C(=C(\c3ccccc3)c3ccc(Cl)cc3)c3ccccc32)c1`
Outgoing: middle group

Incoming: # bin label for `O=C(O)C(F)(F)F.c1ccc(-n2ccc(-c3nnc4n3CCCCC4)c2)cc1`
Outgoing: low group

Incoming: State the class of the compound shown: O=C(O)C(F)(F)F.O=C(O)c1ccc(O)c2ncc(N3CCC(N4CCOCC4)C3)cc12 (stereo not drawn)
Outgoing: high group

Values from paper PMC11249646
